# protocol_description: self-splicing fitness, log relative to wild type (ln ratio); higher = more splicing; Tetrahymena group I intron in knt gene, E. coli kanamycin selection, DiMSum; sequences stand for … in CUCUCU…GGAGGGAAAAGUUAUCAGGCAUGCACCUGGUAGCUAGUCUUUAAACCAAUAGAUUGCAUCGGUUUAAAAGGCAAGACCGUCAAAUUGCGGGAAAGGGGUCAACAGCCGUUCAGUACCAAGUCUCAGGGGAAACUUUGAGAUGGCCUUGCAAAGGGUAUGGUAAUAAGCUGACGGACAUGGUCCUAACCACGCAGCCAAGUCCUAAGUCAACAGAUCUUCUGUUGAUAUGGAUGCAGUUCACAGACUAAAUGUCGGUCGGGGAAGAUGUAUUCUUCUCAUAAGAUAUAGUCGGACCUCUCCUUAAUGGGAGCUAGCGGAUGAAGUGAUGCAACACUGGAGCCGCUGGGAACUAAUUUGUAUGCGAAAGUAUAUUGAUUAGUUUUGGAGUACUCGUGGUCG;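 also: selection with 25 µg/mL kanamycin versus none on LB agar overnight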
# protocol_conditions: 37 °C
outcome_measure: self-splicing fitness (ln)

{"residue_sequence": "GUAGAGCAAUAUUACGUACG", "measured_value": -1.35}
{"residue_sequence": "GCCCAGCAAUAUUACGCAUC", "measured_value": -0.106}
{"residue_sequence": "UCAUAGCAAUAUUACGAUGG", "measured_value": -1.3}
{"residue_sequence": "AAGCAGCAAUAUUACGUCUU", "measured_value": -1.05}
{"residue_sequence": "UCUCAGCAAUAUUACGACGG", "measured_value": -0.119}
{"residue_sequence": "GGAUAGCAAUAUUACGACAG", "measured_value": -2.36}
{"residue_sequence": "AUCAAGCAAUAUUACGUACA", "measured_value": -0.544}
{"residue_sequence": "GCGAAGCAAUAUUACGAUUA", "measured_value": -0.0699}
{"residue_sequence": "CAGGAGCAAUAUUACGGACG", "measured_value": -0.376}
{"residue_sequence": "UGCUAGCAAUAUUACGUCUG", "measured_value": -0.323}
{"residue_sequence": "AGCGAGCAAUAUUACGUCAU", "measured_value": -1.88}
{"residue_sequence": "AAUUAGCAAUAUUACGCUUG", "measured_value": 0.227}
{"residue_sequence": "CAUAAGCAAUAUUACGGUAG", "measured_value": -0.382}

###

# protocol_description: self-splicing fitness, log relative to wild type (ln ratio); higher = more splicing; Tetrahymena group I intron in knt gene, E. coli kanamycin selection, DiMSum; sequences stand for … in CUCUCU…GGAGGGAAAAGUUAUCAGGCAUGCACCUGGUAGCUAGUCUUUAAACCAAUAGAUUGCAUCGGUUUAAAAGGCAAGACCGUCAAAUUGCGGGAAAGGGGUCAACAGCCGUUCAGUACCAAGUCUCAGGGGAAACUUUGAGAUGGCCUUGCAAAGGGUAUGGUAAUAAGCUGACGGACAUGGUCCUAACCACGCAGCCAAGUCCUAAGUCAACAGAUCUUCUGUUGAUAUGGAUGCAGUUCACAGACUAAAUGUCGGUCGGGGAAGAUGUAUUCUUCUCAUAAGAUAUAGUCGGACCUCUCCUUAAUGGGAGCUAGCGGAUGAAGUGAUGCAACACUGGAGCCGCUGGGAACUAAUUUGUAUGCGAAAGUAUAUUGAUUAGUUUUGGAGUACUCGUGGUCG
# protocol_conditions: 37 °C
outcome_measure: self-splicing fitness (ln)

{"residue_sequence": "UGCUAGCAAUAUUACGAAUU", "measured_value": -1.98}
{"residue_sequence": "AAGAAGCAAUAUUACGGGGA", "measured_value": -2.18}
{"residue_sequence": "UCAUAGCAAUAUUACGAAUU", "measured_value": -2.48}
{"residue_sequence": "GCCUAGCAAUAUUACGCUGG", "measured_value": -3.83}
{"residue_sequence": "CGAAAGCAAUAUUACGAAUA", "measured_value": -2.14}
{"residue_sequence": "GCUAAGCAAUAUUACGGAUC", "measured_value": -0.265}
{"residue_sequence": "UGAGAGCAAUAUUACGAUAC", "measured_value": -1.91}
{"residue_sequence": "UCUGAGCAAUAUUACGCGGU", "measured_value": -2.5}

###

# protocol_description: self-splicing fitness, log relative to wild type (ln ratio); higher = more splicing; Tetrahymena group I intron in knt gene, E. coli kanamycin selection, DiMSum; sequences stand for … in CUCUCU…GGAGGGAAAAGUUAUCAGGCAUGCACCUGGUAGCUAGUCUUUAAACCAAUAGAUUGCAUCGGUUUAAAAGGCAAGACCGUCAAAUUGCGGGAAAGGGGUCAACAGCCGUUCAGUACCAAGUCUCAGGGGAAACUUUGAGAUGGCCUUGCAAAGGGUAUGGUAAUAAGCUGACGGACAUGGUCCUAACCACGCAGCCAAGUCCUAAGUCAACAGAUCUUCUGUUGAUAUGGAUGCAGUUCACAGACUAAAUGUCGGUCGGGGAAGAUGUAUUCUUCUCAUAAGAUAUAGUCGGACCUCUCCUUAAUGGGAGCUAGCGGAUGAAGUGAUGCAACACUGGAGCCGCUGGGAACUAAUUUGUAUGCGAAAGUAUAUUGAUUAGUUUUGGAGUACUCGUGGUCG
# protocol_conditions: 37 °C
self-splicing fitness (ln) values for the sequences below.
outcome_measure: self-splicing fitness (ln)

{"residue_sequence": "ACACAGCAAUAUUACGUCCA", "outcome_measure": "self-splicing fitness (ln)", "measured_value": -0.474}
{"residue_sequence": "UUAGAGCAAUAUUACGUCUA", "outcome_measure": "self-splicing fitness (ln)", "measured_value": -0.109}
{"residue_sequence": "UAGAAGCAAUAUUACGUACG", "outcome_measure": "self-splicing fitness (ln)", "measured_value": -0.721}
{"residue_sequence": "CCCGAGCAAUAUUACGUGCC", "outcome_measure": "self-splicing fitness (ln)", "measured_value": -3.26}
{"residue_sequence": "ACCCAGCAAUAUUACGGGAC", "outcome_measure": "self-splicing fitness (ln)", "measured_value": -1.54}
{"residue_sequence": "CCCGAGCAAUAUUACGGACU", "outcome_measure": "self-splicing fitness (ln)", "measured_value": -2.19}
{"residue_sequence": "GGGCAGCAAUAUUACGGAAC", "outcome_measure": "self-splicing fitness (ln)", "measured_value": -1.75}

###

# protocol_description: self-splicing fitness, log relative to wild type (ln ratio); higher = more splicing; Tetrahymena group I intron in knt gene, E. coli kanamycin selection, DiMSum; sequences stand for … in CUCUCU…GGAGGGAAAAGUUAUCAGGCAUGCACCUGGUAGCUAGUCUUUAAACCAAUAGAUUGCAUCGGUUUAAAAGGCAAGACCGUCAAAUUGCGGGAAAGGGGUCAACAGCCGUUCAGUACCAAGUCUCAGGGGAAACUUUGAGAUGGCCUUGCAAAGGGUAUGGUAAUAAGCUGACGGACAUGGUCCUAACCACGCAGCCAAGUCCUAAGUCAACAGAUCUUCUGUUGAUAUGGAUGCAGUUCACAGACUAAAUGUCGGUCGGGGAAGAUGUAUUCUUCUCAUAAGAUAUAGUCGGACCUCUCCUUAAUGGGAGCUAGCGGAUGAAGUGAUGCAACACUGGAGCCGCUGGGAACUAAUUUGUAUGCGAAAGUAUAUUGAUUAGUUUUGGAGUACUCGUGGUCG
# protocol_conditions: 30 °C
Decision: self-splicing fitness (ln) compared against -3; not below it gives yes (1), below it gives no (0).

{"residue_sequence": "CACUAGCAAUAUUACGUGCU", "assigned_label": "no (0)"}
{"residue_sequence": "UGUCAGCAAUAUUACGUAUA", "assigned_label": "yes (1)"}
{"residue_sequence": "CACCAGCAAUAUUACGUGUG", "assigned_label": "no (0)"}
{"residue_sequence": "CCAGAGCAAUAUUACGUUAG", "assigned_label": "no (0)"}
{"residue_sequence": "GUCUAGCAAUAUUACGUGAC", "assigned_label": "no (0)"}
{"residue_sequence": "UUACAGCAAUAUUACGAAAG", "assigned_label": "yes (1)"}
{"residue_sequence": "ACCCAGCAAUAUUACGUCCC", "assigned_label": "yes (1)"}

###

# protocol_description: self-splicing fitness, log relative to wild type (ln ratio); higher = more splicing; Tetrahymena group I intron in knt gene, E. coli kanamycin selection, DiMSum; sequences stand for … in CUCUCU…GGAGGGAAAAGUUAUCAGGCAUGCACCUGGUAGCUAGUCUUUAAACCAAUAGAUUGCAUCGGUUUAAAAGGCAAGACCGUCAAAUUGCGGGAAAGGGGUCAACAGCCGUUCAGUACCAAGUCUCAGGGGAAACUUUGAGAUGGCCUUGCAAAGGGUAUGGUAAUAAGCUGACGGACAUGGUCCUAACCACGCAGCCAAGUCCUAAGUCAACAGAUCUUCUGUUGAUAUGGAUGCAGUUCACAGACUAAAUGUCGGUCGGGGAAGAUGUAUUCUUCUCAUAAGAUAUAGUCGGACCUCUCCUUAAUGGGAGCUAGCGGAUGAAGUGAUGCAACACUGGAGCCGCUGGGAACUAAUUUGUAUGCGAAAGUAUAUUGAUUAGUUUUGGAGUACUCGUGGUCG
# protocol_conditions: 37 °C
Using self-splicing fitness (ln) as the sorting value, the categories are low: < -2; medium: ≥ -2 and < -1; high: ≥ -1

{"residue_sequence": "ACCAAGCAAUAUUACGGGCA", "assigned_label": "high"}
{"residue_sequence": "UGGAAGCAAUAUUACGAUUU", "assigned_label": "medium"}
{"residue_sequence": "UAAUAGCAAUAUUACGUCAG", "assigned_label": "medium"}
{"residue_sequence": "GAUAAGCAAUAUUACGUAGU", "assigned_label": "high"}
{"residue_sequence": "CCCAAGCAAUAUUACGAGCC", "assigned_label": "low"}
{"residue_sequence": "GCUCAGCAAUAUUACGACGA", "assigned_label": "medium"}
{"residue_sequence": "AAUUAGCAAUAUUACGGUAC", "assigned_label": "medium"}
{"residue_sequence": "GUACAGCAAUAUUACGGUCU", "assigned_label": "high"}
{"residue_sequence": "AAUCAGCAAUAUUACGGGAG", "assigned_label": "high"}
{"residue_sequence": "CGGAAGCAAUAUUACGUUGU", "assigned_label": "low"}
{"residue_sequence": "UUUAAGCAAUAUUACGAAAG", "assigned_label": "medium"}
{"residue_sequence": "CUAAAGCAAUAUUACGGUCA", "assigned_label": "medium"}
{"residue_sequence": "UGAGAGCAAUAUUACGGCAG", "assigned_label": "medium"}
